protocol_details: chemical genetic growth profiling, strain panel (AID 1159580);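 further: tested at 20 µM; growth read once vehicle control cultures reached saturation at 30 °C; 1 = growth at the plate median or of vehicle wells; lower values mean less growth of the strain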
condition_details: S. cerevisiae deletion strains, growth OD, locus YNL248C, strain rpa49, stronger effect = lower value
Hit rate of the full screen: of about 5,500 compounds, about 2,000 (36%) were called active. Another 18% or so got no clear call; they are omitted. Some of the results follow. Where a SMILES comes first, the peptide text is derived from it.

>  <compound>
COC(=O)[C@H](Cc1ccccc1)NC(=O)[C@@H](N)CC(=O)O (H-Asp-Phe-OMe)

>  <normalized growth>
1

$$$$
>  <compound>
C[C@@H]1O[C@@H](OC[C@H]2OC(Oc3c(-c4ccc(OCCO)c(OCCO)c4)oc4cc(OCCO)cc(O)c4c3=O)[C@H](O)[C@@H](O)[C@@H]2O)[C@H](O)[C@H](O)[C@H]1O (stereo partly drawn)

>  <normalized growth>
0.973

$$$$
>  <compound>
COc1cc(OC)c2ccc(=O)oc2c1

>  <normalized growth>
0.872

$$$$
>  <compound>
COc1cc(OC)c2c(=O)c(O)c(-c3ccc(OC)c(OC)c3)oc2c1

>  <normalized growth>
0.951

$$$$
>  <compound>
COc1ccc(-c2cc(=O)c3c(O)cc(O[C@@H]4O[C@H](CO[C@H]5O[C@H](C)[C@@H](O)[C@H](O)[C@@H]5O)[C@@H](O)[C@H](O)[C@H]4O)cc3o2)cc1O

>  <normalized growth>
1

$$$$
>  <compound>
C[C@]12CCC3c4ccc(O)cc4CCC3C1CC[C@@H]2O (stereo partly drawn)

>  <normalized growth>
0.993

$$$$
>  <compound>
CCc1cc(C(N)=S)ccn1

>  <normalized growth>
1

$$$$
>  <compound>
O=c1ccc2c(O)c3ccoc3cc2o1

>  <normalized growth>
0.941

$$$$
>  <compound>
C[C@@H]1O[C@@H](OC[C@H]2OC(Oc3c(-c4ccc(O)c(O)c4)oc4cc(O)cc(O)c4c3=O)[C@H](O)[C@@H](O)[C@@H]2O)[C@H](O)[C@H](O)[C@H]1O (stereo partly drawn)

>  <normalized growth>
1.01

$$$$
>  <compound>
CCCCOc1cc(C(=O)NCCN(CC)CC)c2ccccc2n1

>  <normalized growth>
0.979

$$$$
>  <compound>
O=c1cc(-c2ccc(O)cc2)oc2cc(O[C@@H]3O[C@H](CO)[C@@H](O)[C@H](O)[C@H]3O)cc(O)c12

>  <normalized growth>
1.08

$$$$
>  <compound>
C[C@H]1O[C@H](OC2[C@@H](O)[C@@H](O)C(O)[C@H](O)[C@H]2O)[C@@H](N)C[C@@H]1N=C(N)C(=O)O (stereo partly drawn)

>  <normalized growth>
0.933

$$$$
>  <compound>
CC1O[C@@H](Oc2c(-c3ccc(O)c(O)c3)oc3cc(O)cc(O)c3c2=O)[C@H](O)[C@H](O)[C@H]1O (stereo partly drawn)

>  <normalized growth>
0.989

$$$$
>  <compound>
O=c1c(O)c(-c2ccc(O)cc2O)oc2cc(O)cc(O)c12

>  <normalized growth>
0.976

$$$$
>  <compound>
COc1c2ccoc2cc2oc(=O)ccc12

>  <normalized growth>
0.575

$$$$
>  <compound>
COc1ccc(-c2oc3cc(O[C@H]4O[C@H](CO)[C@@H](O)[C@H](O)[C@H]4O)c(OC)c(O)c3c(=O)c2OC)cc1O

>  <normalized growth>
1

$$$$
>  <compound>
CC[n+]1c(-c2ccccc2)c2cc(N)ccc2c2ccc(N)cc21

>  <normalized growth>
0.858

$$$$
>  <compound>
O=c1c(O)c(-c2ccc(O)c(O)c2)oc2cc(O)cc(O)c12

>  <normalized growth>
0.948

$$$$
